Test system: Normal epithelial VERO cells
Test: MTT cytotoxicity assay, normal epithelial VERO cells (non-cancer control)
Format: cell-based, African green monkey
Conditions: 48 h incubation, three independent experiments, read-out: Growth Inhibition of Cells (GI50 ± SEM) VERO
recorded.metric: GI50

C[C@@H](O)CCc1ccc(O)cc1 [Compound 4, (R)-4-(4-Hydroxyphenyl)-2-butanol] ... > 100 µM
CC(=O)CCc1ccc(O)cc1 [Compound 9, 4-(4-Hydroxyphenyl)butan-2-one] ... > 100 µM

Now turn to the next compound.
I'd like to know its GI50. The compound in question is C[C@H](CCc1ccc(O)cc1)O[C@@H]1O[C@H](CO)[C@@H](O)[C@H](O)[C@H]1O
> 100 µM
